measurement_description: protease stability score; higher = more stable; yeast display proteolysis, trypsin and chymotrypsin;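 also: relative to predicted unfolded state with 0 unfolded-like and 1 meaning tenfold more protease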
quantity: protease stability score

INSERT INTO measurements (input_sequence, quantity, value_measured) VALUES
  ('SELEEQVKYALELFIRTFETGDEDLSSQLLDPNTRLEINGREIHGRELVSKFWLKFATEMRLRRTHTRSIRNVDGKAINHTTIDVEIGDKRTTIDVELIAYKFDGRWVNEKIQFH', 'protease stability score', 0.828),
  ('DEEEKILHDALEELKREFETGDEELWQRLADPHTRVEVGDKEYHGREEFVKMMSDFVRHLRWEELRIRSVHAQGEKVITHIELEMNIDGRREIHNVTIIMRKINGRWHIEFMHKR', 'protease stability score', 0.926),
  ('SEDDEFYKHAFNLMIRVLETGDEELFTKMADPNVRSEINGQDIHGREMLSHIVLEEVRRADHIEFRIDHFRVIGDKVEHDGTKILNVNGVNIELRFHLHSVKVNGKWILKSERVD', 'protease stability score', 0.869),
  ('HEEERILRFYLEWIEHHLRTGDERFIEENADPNVKIRVNGKDIHGRERYNEVWDKVLRDFGVDHTNDKDTTAYDGRIEVHEEWRFNGRRVDVETIIIFINGVIKHIEIRIRIE', 'protease stability score', 2.12),
  ('DEHKHIAEEIARIVLENWMTGNEEIFKKMADPHVRVHINGKKSHGRDHYHELWRLLFEHIRIEHLHIRHMDKQGDFVRVEVEVTGHIDGRRETVESEFRIRTVNGVLRDVEIHFH', 'protease stability score', 1.2),
  ('SEDEQSLREHIEWIIRALETGDWKKIEKLLDPHTRQDVNGREHIGREEVSRAIVQTFETLGVDHVQLTEIRNINGRLIVHVKMDVNGKILDLELIVTKIDGKWFMESVRLH', 'protease stability score', 1.89);

---

measurement_description: protease stability score; higher = more stable; yeast display proteolysis, trypsin and chymotrypsin;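 also: relative to predicted unfolded state with 0 unfolded-like and 1 meaning tenfold more protease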
Overview of recorded protease stability score for various sequences
quantity: protease stability score

INSERT INTO assay_data (input_sequence, quantity, value_measured) VALUES
  ('QEYDEHIEELWRDFVHAMITGDEDRLSELMDPDTRILVGDKHLVGWDRALRFLHEHIREIRPTDFKLRDIRFFDGRIHVDTEMRLVVNGQEVHKKTHLIVYKYDGRWHIEAIIEH', 'protease stability score', 2.24),
  ('SEEEEMLHHLSERMTRALRTGDWKTLFELLDPNVRYEQGDKELHGREEMVKHIRHAMERVKNIRIEFTHIDTRLIDGRIHVHIDGRDEFNGVRFKKHIIVHIDKIDGKWFTDNFRLIYE', 'protease stability score', 1.15),
  ('DEDEESLRRMTTLLLYLWLTGDFEEMQKLADPRVKLDAENRNVHGREEWYEFMKRLGVKHSEVHHLRVINGRIDVETRVDVDGQEVRIRFIIDKVDGRWFLRRVYVH', 'protease stability score', 1.85);

---

measurement_description: protease stability score; higher = more stable; yeast display proteolysis, trypsin and chymotrypsin;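 also: relative to predicted unfolded state with 0 unfolded-like and 1 meaning tenfold more protease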
Overview of recorded protease stability score for various sequences
quantity: protease stability score

INSERT INTO results (input_sequence, value_measured) VALUES
  ('TEEERDVEKFIRDTLHYLHTGDEDAVAELMDPNVKFIIGDKHLHGMEALEYWSERFDHFHVRRLEIHHFEIINGRVHIELRIWVEVRYNGRIFELEFRSEYIMYKIDGKWVIKHVRHT', 1.56),
  ('SEDEEKTRKFIELFLYLWVTGDEDSLSELLDPNVRAEVNGKSAHGRDEVSKLSDVFMKELGVKHTRQTTQHRYEIQGDKLKSHLTIDIEVDGQNVKEFVVIVVEKINGRWIIRHIRFE', 1.1),
  ('SEHQEVFEEFVRRWIEDMETGNEEQLRHLADPDARIVINGREHHGREWVSTFLMKRIRHLGVKHVEIDDKKQIGEKIHVRVTIHFDGVTVDTELIALKINGRWFMHEVIFR', 1.5),
  ('DESRREVRHFIDLWIELVETGDEDTIRHLADPHVKIVIGEKEDWGMEVFFRDFRRLGVDHMEIIVHRVDVIGNKAHVDFELRVHVDGQEFRFRLRLIVHKINGRWILRTIEIH', 1.68),
  ('DETKEKVRIALELLETLHRTGDEDKFLELADPHYQLHINGQTVIGRETIYELLVRFLHHLGATSEVRIRSVDWQGDKIIVDMRLHFRVGDKSFEIQVHIYILKVNGKWLIESIEIR', 1.68),
  ('DEHEEDARRDLEKLARSLKTGDEDSLRTLFDPNTRNDVNGKDFIGWEELLRILREWRFHDMKVEDLEVQGNKVISHVRLDGTFDGRRDEMHVEIRAEKVNGRWRIRSYIVR', 1.77);
